Test system: LOC_OS02G08530-cb003
Experiment: thermal shift delta Tm vs DMSO control; higher = stronger stabilization (binding);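 note: purified Escherichia coli-expressed rice kinase domain construct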
Details: 12.5 µM; protein concentration 2 µM
METRIC_NAME: thermal shift delta Tm

Illustrative cases are given below, each with its answer.
O=C(O)CCC(=O)Nc1ccc(Br)cn1
0.69 °C
Cc1ccc(NC(=O)c2ccc(CN3CCN(C)CC3)cc2)cc1Nc1nc(-c2cccnc2)cs1
0.9 °C
C[C@@H]1COC(Nc2ccc3ncnc(Nc4ccc(OCc5nccs5)c(Cl)c4)c3c2)=N1
0.76 °C
CCCCCCCCCCCCCCCCCCOP(=O)([O-])OC1CC[N+](C)(C)CC1
-1.07 °C

Task: State its thermal shift delta Tm on LOC_OS02G08530-cb003: COc1cc(N2CCC(N(C)C)CC2)ccc1Nc1ncc(Cl)c(Nc2ccccc2P(C)(C)=O)n1
Result: 5.8 °C

---

System: LOC_OS03G27990-cb004
Assay: thermal shift delta Tm vs DMSO control; higher = stronger stabilization (binding)
Settings: 12.5 µM; protein concentration 2 µM
Record fulfilled whenever thermal shift delta Tm is at 0.9 °C or higher; record not fulfilled when lower.

CN1CCN(c2ccc(-c3ccncc3-c3cc(F)c(O)c(F)c3)cc2)CC1
not fulfilled
COc1ccc(Oc2cc(NCCC(F)(F)F)c3ncc(-c4ccc(C(=O)NC5CC5)c(C)c4)n3n2)c(F)c1F
not fulfilled
Cc1nc(N)sc1-c1ccnc(Nc2ccc(N3CCOCC3)cc2)n1
fulfilled
COc1cc(F)c(F)c(Nc2ccc(I)cc2F)c1NS(=O)(=O)C1(C[C@H](O)CO)CC1 [Refametinib (RDEA119, Bay 86-9766)]
not fulfilled
CO[C@H]1C[C@@H]2CC[C@@H](C)[C@@](O)(O2)C(=O)C(=O)N2CCCC[C@H]2C(=O)O[C@H]([C@H](C)C[C@@H]2CC[C@H](n3cnnn3)[C@H](OC)C2)CC(=O)[C@H](C)/C=C(\C)[C@@H](O)[C@@H](OC)C(=O)[C@H](C)C[C@H](C)/C=C/C=C/C=C/1C
not fulfilled
CC(C)NC(=O)C1CCC(n2c(NC(=O)c3ccc(F)cc3)nc3ccc(CN4CCC(C(C)(C)O)CC4)cc32)CC1 (configuration not stated)
fulfilled

Task: Determine whether this compound has thermal shift delta Tm no lower than 0.9 °C: C=CC(=O)Nc1cccc(Oc2nc(Nc3ccc(N4CCN(C)CC4)cc3OC)ncc2Cl)c1
Result: fulfilled

Task: Determine whether this compound has thermal shift delta Tm no lower than 0.9 °C: C[C@]1(O)C[C@@H](c2nc(-c3ccc4ccc(-c5ccccc5)nc4c3)c3c(N)nccn32)C1
Result: not fulfilled

Task: Determine whether this compound has thermal shift delta Tm no lower than 0.9 °C: COc1cc(Nc2ncc(F)c(Nc3ccc4c(n3)N(COP(=O)(O)O)C(=O)C(C)(C)O4)n2)cc(OC)c1OC [R788 (Fostamatinib) Disodium]
Result: fulfilled

Task: Determine whether this compound has thermal shift delta Tm no lower than 0.9 °C: Nc1cccc(S(=O)(=O)N2CCCN(S(=O)(=O)c3ccc4c(c3)OCCO4)CC2)c1
Result: not fulfilled

Task: Determine whether this compound has thermal shift delta Tm no lower than 0.9 °C: Cc1cc(F)c(Nc2ncnc3cc(OCc4ccccc4)ccc23)cc1O
Result: not fulfilled

Task: Determine whether this compound has thermal shift delta Tm no lower than 0.9 °C: Clc1ccc(C2(c3ccc(-c4cn[nH]c4)cc3)CCNCC2)cc1
Result: not fulfilled

Task: Determine whether this compound has thermal shift delta Tm no lower than 0.9 °C: CN(C)C/C=C/C(=O)Nc1cc2c(Nc3ccc(F)c(Cl)c3)ncnc2cc1O[C@H]1CCOC1 [Afatinib (BIBW2992)]
Result: fulfilled

The reported measurements were obtained from the supplement of paper PMC9694430.
